Assay: Cell viability by CellTiter-Glo 2.0 (intracellular ATP content)
Assay type: cell-based
Settings: human, HepG2.117 cells, 3 days incubation
Where a name gives a salt, the structure may show the parent alone.
METRIC: CC50 at 3 days

# MOLECULE, VALUE OBSERVED
rows = [
    ("C=C[C@H](C)Nc1nc2c(c(=O)n1-c1ccc(C(=O)N(C)C(=O)OCOP(=O)(O)O)cc1)C[C@@H](C)N(C(=O)c1ccc(Br)c(C(F)(F)F)c1)C2 [Compound 2]", "> 50 µM"),
    ("C=C[C@H](C)Nc1nc2c(c(=O)n1-c1ccc(C(=O)N(C)CO)cc1)C[C@@H](C)N(C(=O)c1ccc(Br)c(C(F)(F)F)c1)C2 [Compound 8]", "> 50 µM"),
    ("C=C[C@H](C)Nc1nc2c(c(=O)n1-c1ccc(C(=O)N(C)C(=O)OCOC(=O)[C@H](N)C(C)C)cc1)C[C@@H](C)N(C(=O)c1ccc(Br)c(C(F)(F)F)c1)C2 [Compound 5, hydrochloride]", "48.8 µM"),
    ("C=C[C@H](C)Nc1nc2c(c(=O)n1-c1ccc(C(=O)N(C)C(=O)OCOC(=O)[C@@H](N)C(C)C)cc1)C[C@@H](C)N(C(=O)c1ccc(Br)c(C(F)(F)F)c1)C2 [Compound 4, hydrochloride]", "> 50 µM"),
    ("C=C[C@H](C)Nc1nc2c(c(=O)n1-c1ccc(C(=O)N(C)C(=O)OCOC(=O)C[C@H](O)C(=O)O)cc1)C[C@@H](C)N(C(=O)c1ccc(Br)c(C(F)(F)F)c1)C2 [Compound 9]", "> 50 µM"),
    ("C=C[C@H](C)Nc1nc2c(c(=O)n1-c1ccc(C(=O)NC)cc1)C[C@@H](C)N(C(=O)c1ccc(Br)c(C(F)(F)F)c1)C2 [Compound 1]", "46.8 µM"),
    ("C=C[C@H](C)Nc1nc2c(c(=O)n1-c1ccc(C(=O)N(C)C(=O)OCOC(=O)/C=C/C(=O)O)cc1)C[C@@H](C)N(C(=O)c1ccc(Br)c(C(F)(F)F)c1)C2 [Compound 3]", "> 50 µM"),
]
